# testConditions: in n-propyl acetate, 303.15 K
measuredEndpoint: solubility (mole fraction)
Lab note: record the figure alone, no unit after it.

Give solubility (mole fraction) for `CC(=O)O[C@]1(C(C)=O)CC[C@H]2[C@@H]3C[C@H](C)C4=CC(=O)CC[C@]4(C)[C@H]3CC[C@@]21C`
0.00682

---

# testConditions: in n-propyl acetate, 283.15 K
measuredEndpoint: solubility (mole fraction)
Lab note: record the figure alone, no unit after it.

Give solubility (mole fraction) for `CC(=O)O[C@]1(C(C)=O)CC[C@H]2[C@@H]3C[C@H](C)C4=CC(=O)CC[C@]4(C)[C@H]3CC[C@@]21C`
0.00384

---

# testConditions: in n-butanol, 288.15 K
measuredEndpoint: solubility (mole fraction)
Lab note: record the figure alone, no unit after it.

Give solubility (mole fraction) for `CC(=O)O[C@]1(C(C)=O)CC[C@H]2[C@@H]3C[C@H](C)C4=CC(=O)CC[C@]4(C)[C@H]3CC[C@@]21C`
0.00131

---

# testConditions: in ethyl acetate, 278.15 K
measuredEndpoint: solubility (mole fraction)
Lab note: record the figure alone, no unit after it.

Give solubility (mole fraction) for `CC(=O)O[C@]1(C(C)=O)CC[C@H]2[C@@H]3C[C@H](C)C4=CC(=O)CC[C@]4(C)[C@H]3CC[C@@]21C`
0.00327

---

# testConditions: in methyl acetate, 308.15 K
measuredEndpoint: solubility (mole fraction)
Lab note: record the figure alone, no unit after it.

Give solubility (mole fraction) for `CC(=O)O[C@]1(C(C)=O)CC[C@H]2[C@@H]3C[C@H](C)C4=CC(=O)CC[C@]4(C)[C@H]3CC[C@@]21C`
0.00866

---

# testConditions: in ethyl acetate, 303.15 K
measuredEndpoint: solubility (mole fraction)
Lab note: record the figure alone, no unit after it.

Give solubility (mole fraction) for `CC(=O)O[C@]1(C(C)=O)CC[C@H]2[C@@H]3C[C@H](C)C4=CC(=O)CC[C@]4(C)[C@H]3CC[C@@]21C`
0.00671

---

# testConditions: in n-butanol, 308.15 K
measuredEndpoint: solubility (mole fraction)
Lab note: record the figure alone, no unit after it.

Give solubility (mole fraction) for `CC(=O)O[C@]1(C(C)=O)CC[C@H]2[C@@H]3C[C@H](C)C4=CC(=O)CC[C@]4(C)[C@H]3CC[C@@]21C`
0.00356

---

# testConditions: in n-butyl acetate, 278.15 K
measuredEndpoint: solubility (mole fraction)
Lab note: record the figure alone, no unit after it.

Give solubility (mole fraction) for `CC(=O)O[C@]1(C(C)=O)CC[C@H]2[C@@H]3C[C@H](C)C4=CC(=O)CC[C@]4(C)[C@H]3CC[C@@]21C`
0.00296

---

# testConditions: in methyl acetate, 288.15 K
measuredEndpoint: solubility (mole fraction)
Lab note: record the figure alone, no unit after it.

Give solubility (mole fraction) for `CC(=O)O[C@]1(C(C)=O)CC[C@H]2[C@@H]3C[C@H](C)C4=CC(=O)CC[C@]4(C)[C@H]3CC[C@@]21C`
0.00479

---

# testConditions: in methanol, 318.15 K
measuredEndpoint: solubility (mole fraction)
Lab note: record the figure alone, no unit after it.

Give solubility (mole fraction) for `CC(=O)O[C@]1(C(C)=O)CC[C@H]2[C@@H]3C[C@H](C)C4=CC(=O)CC[C@]4(C)[C@H]3CC[C@@]21C`
0.00309

---

# testConditions: in isopropanol, 318.15 K
measuredEndpoint: solubility (mole fraction)
Lab note: record the figure alone, no unit after it.

Give solubility (mole fraction) for `CC(=O)O[C@]1(C(C)=O)CC[C@H]2[C@@H]3C[C@H](C)C4=CC(=O)CC[C@]4(C)[C@H]3CC[C@@]21C`
0.00373

---

# testConditions: in methanol, 308.15 K
measuredEndpoint: solubility (mole fraction)
Lab note: record the figure alone, no unit after it.

Give solubility (mole fraction) for `CC(=O)O[C@]1(C(C)=O)CC[C@H]2[C@@H]3C[C@H](C)C4=CC(=O)CC[C@]4(C)[C@H]3CC[C@@]21C`
0.00202

---

# testConditions: in acetone, 323.15 K
measuredEndpoint: solubility (mole fraction)
Lab note: record the figure alone, no unit after it.

Give solubility (mole fraction) for `CC(=O)O[C@]1(C(C)=O)CC[C@H]2[C@@H]3C[C@H](C)C4=CC(=O)CC[C@]4(C)[C@H]3CC[C@@]21C`
0.0164

---

# testConditions: in acetonitrile, 283.15 K
measuredEndpoint: solubility (mole fraction)
Lab note: record the figure alone, no unit after it.

Give solubility (mole fraction) for `CC(=O)O[C@]1(C(C)=O)CC[C@H]2[C@@H]3C[C@H](C)C4=CC(=O)CC[C@]4(C)[C@H]3CC[C@@]21C`
0.00339

---

# testConditions: in n-butyl acetate, 313.15 K
measuredEndpoint: solubility (mole fraction)
Lab note: record the figure alone, no unit after it.

Give solubility (mole fraction) for `CC(=O)O[C@]1(C(C)=O)CC[C@H]2[C@@H]3C[C@H](C)C4=CC(=O)CC[C@]4(C)[C@H]3CC[C@@]21C`
0.00829

---

# testConditions: in n-propyl acetate, 298.15 K
measuredEndpoint: solubility (mole fraction)

Give solubility (mole fraction) for `CC(=O)O[C@]1(C(C)=O)CC[C@H]2[C@@H]3C[C@H](C)C4=CC(=O)CC[C@]4(C)[C@H]3CC[C@@]21C`
0.0059

---

# testConditions: in acetone, 313.15 K
measuredEndpoint: solubility (mole fraction)

Give solubility (mole fraction) for `CC(=O)O[C@]1(C(C)=O)CC[C@H]2[C@@H]3C[C@H](C)C4=CC(=O)CC[C@]4(C)[C@H]3CC[C@@]21C`
0.0126

---

# testConditions: in acetonitrile, 313.15 K
measuredEndpoint: solubility (mole fraction)
Lab note: record the figure alone, no unit after it.

Give solubility (mole fraction) for `CC(=O)O[C@]1(C(C)=O)CC[C@H]2[C@@H]3C[C@H](C)C4=CC(=O)CC[C@]4(C)[C@H]3CC[C@@]21C`
0.0092

---

# testConditions: in methanol, 288.15 K
measuredEndpoint: solubility (mole fraction)
Lab note: record the figure alone, no unit after it.

Give solubility (mole fraction) for `CC(=O)O[C@]1(C(C)=O)CC[C@H]2[C@@H]3C[C@H](C)C4=CC(=O)CC[C@]4(C)[C@H]3CC[C@@]21C`
0.000887

---

# testConditions: in isobutanol, 278.15 K
measuredEndpoint: solubility (mole fraction)
Lab note: record the figure alone, no unit after it.

Give solubility (mole fraction) for `CC(=O)O[C@]1(C(C)=O)CC[C@H]2[C@@H]3C[C@H](C)C4=CC(=O)CC[C@]4(C)[C@H]3CC[C@@]21C`
0.000675

---

# testConditions: in n-propanol, 288.15 K
measuredEndpoint: solubility (mole fraction)
Lab note: record the figure alone, no unit after it.

Give solubility (mole fraction) for `CC(=O)O[C@]1(C(C)=O)CC[C@H]2[C@@H]3C[C@H](C)C4=CC(=O)CC[C@]4(C)[C@H]3CC[C@@]21C`
0.00114

---

# testConditions: in methyl acetate, 283.15 K
measuredEndpoint: solubility (mole fraction)
Lab note: record the figure alone, no unit after it.

Give solubility (mole fraction) for `CC(=O)O[C@]1(C(C)=O)CC[C@H]2[C@@H]3C[C@H](C)C4=CC(=O)CC[C@]4(C)[C@H]3CC[C@@]21C`
0.00415

---

# testConditions: in isobutanol, 308.15 K
measuredEndpoint: solubility (mole fraction)
Lab note: record the figure alone, no unit after it.

Give solubility (mole fraction) for `CC(=O)O[C@]1(C(C)=O)CC[C@H]2[C@@H]3C[C@H](C)C4=CC(=O)CC[C@]4(C)[C@H]3CC[C@@]21C`
0.00351

---

# testConditions: in isobutyl acetate, 313.15 K
measuredEndpoint: solubility (mole fraction)
Lab note: record the figure alone, no unit after it.

Give solubility (mole fraction) for `CC(=O)O[C@]1(C(C)=O)CC[C@H]2[C@@H]3C[C@H](C)C4=CC(=O)CC[C@]4(C)[C@H]3CC[C@@]21C`
0.00736

---

# testConditions: in ethyl acetate, 293.15 K
measuredEndpoint: solubility (mole fraction)

Give solubility (mole fraction) for `CC(=O)O[C@]1(C(C)=O)CC[C@H]2[C@@H]3C[C@H](C)C4=CC(=O)CC[C@]4(C)[C@H]3CC[C@@]21C`
0.00515

---

# testConditions: in methyl acetate, 318.15 K
measuredEndpoint: solubility (mole fraction)
Lab note: record the figure alone, no unit after it.

Give solubility (mole fraction) for `CC(=O)O[C@]1(C(C)=O)CC[C@H]2[C@@H]3C[C@H](C)C4=CC(=O)CC[C@]4(C)[C@H]3CC[C@@]21C`
0.0115

---

# testConditions: in n-propanol, 313.15 K
measuredEndpoint: solubility (mole fraction)
Lab note: record the figure alone, no unit after it.

Give solubility (mole fraction) for `CC(=O)O[C@]1(C(C)=O)CC[C@H]2[C@@H]3C[C@H](C)C4=CC(=O)CC[C@]4(C)[C@H]3CC[C@@]21C`
0.00395
